Property: log10 IC50; scope: individual compounds
molecular target: recombinant human ACC1 (acetyl-CoA carboxylase 1) (Homo sapiens); construct: NM_198834, amino acids 39—end; FLAG (C); experiment: Human ACC1 enzyme assay (HTRF ADP detection); details: 50 μM ATP, 20 μM acetyl-CoA, 15 min pre-incubation, 20 min at 22° C.; read-out: ACC 1 IC50;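 also: ADP by-product quantified by competitive HTRF immunoassay with europium cryptate anti-ADP antibody and d2-labelled ADP, read after 1 h binding at 22 °C, enzyme near 2.5 ng/µl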
Could you please treat all values as log10 of IC50 in nM?

>  <compound>
Cc1ccc(-c2ccc(Cl)cc2)cc1C1=C(O)C2(CCC3(CC2)OC(C)C(C)O3)NC1=O (centres unmarked)

>  <log10 IC50>
2.99

$$$$
>  <compound>
COC1CCCC2(C1)OC(=O)C(c1cc(-c3ccc(Cl)cc3)ccc1Cl)=C2O (centres unmarked)

>  <log10 IC50>
2.91

$$$$
>  <compound>
Cc1cc(C)c(-c2ccc(Cl)cc2)c(C)c1C1=C(O)C2(CCCC2)OC1=O

>  <log10 IC50>
3.76

$$$$
>  <compound>
Cc1ccc(-c2ccc(Cl)cc2)cc1-c1c(O)c2ccc(F)cc2[nH]c1=O

>  <log10 IC50>
2.62

$$$$

Identify the reported log10 IC50 for the following entry. Cc1ccc(-c2ccc(Cl)cc2)c(C)c1C1C(=O)N2CCOCCN2C1=O 2.97

Report log10 IC50 for O=C1OC2(CCC3(CCCO3)CC2)C(O)=C1c1cc(-c2ccc(Cl)cc2)ccc1Cl (centres unmarked) 2.91

Determine its reported log10 IC50: CO[C@H]1CC[C@]2(CC1)NC(=O)C(c1cc(-c3ccc(F)cc3)ccc1Cl)=C2O 2.96

Please look at this compound and report its log10 IC50: Cc1ccc(-c2ccc(Cl)cc2)cc1C1=C(O)C2(CC2)NC1=O 2.66
